Please provide measured folding stability dG unfold for the entries that follow.
# assay: folding stability dG unfold (combined trypsin and chymotrypsin); higher = more stable

Entry SAGGSAGGAELKPVGNDPETGKTAVILLKKPDPTGLVLALEGLSPEELKKLAEIPGYEAVAVLASAGGSAGG [r6_185_TrMRF] — recorded folding stability dG unfold = 0.787 kcal/mol

Reported folding stability dG unfold ( SAKVHIPFPPGMPPKQMRNMVKNALREQQNNGKEPDKITIHMPPDQRPIKDWLKEAGLPPDNVKWEPWPSAG [r14_589_TrROS] ) = < -1 kcal/mol

In plain terms, SAGGMEVVFVVGSPEVAEAFREKHPDLPFVPVSLEDYRNPAPFEAAVAAVEARGHAVRVITVPDDPESAGGS [r8_376_JUSTAS] has a documented folding stability dG unfold of 0.796 kcal/mol

Entry SAGGSAGGSEPEEPEYILIERVEAGEKPKITITFKDGTKKEIEVKPGETILIKVPKDAKIEVESAGGSAGGS [r12_553_TrROS_Hall] — recorded folding stability dG unfold = 0.94 kcal/mol
